For reference, the following pKi results for Carbonic anhydrase 1 (Homo sapiens) were taken from various sources.
pKi: −log10 of the molar value.
observable: pKi

// solved cases for pKi follow
compound="COc1ccc(C(N)c2cccc(OC)c2OC)cc1OC (stereo not given)" quantitative_result=4.17
compound=CCc1ccc(NS(=O)(=O)c2ccc(C)cc2)cc1 quantitative_result=6.12
compound="COc1ccc(C(N)c2ccc(OC)c(OC)c2)c(OC)c1 (stereo not given)" quantitative_result=4.44

[a] Cc1ccc(S(=O)(=O)Nc2ccc([N+](=O)[O-])cc2)cc1
[b] COc1ccc(C(O)CCCCC(O)c2ccc(OC)c(OC)c2)cc1OC (stereo not given)
[c] CCCCOc1ccc(NC(=O)Nc2ccc(NS(N)(=O)=O)cc2)cc1
[d] Oc1cccc(O)c1
[e] O[C@@H]1Cc2ccccc2C[C@H]1O
Q: Write the entries in order, lowest recorded pKi first. Note for the reader: the ranking is given by listing the labels in the order requested.
A: d, e, c, b, a
(d: 3.08, e: 3.37, c: 5.77, b: 6.11, a: 6.32)

[1] Cc1ccc(S(=O)(=O)Nc2ccccc2C#N)cc1
[2] CO/N=C(\C(=O)N[C@@H]1C(=O)N2C(C(=O)O)=CCS[C@H]12)c1csc(N)n1
[3] O=C(O)/C=C/c1ccc(O)cc1
[4] CC1(C)CCC2=C(C1=O)C(c1ccc(Cl)cc1Cl)C1=C(CCC(C)(C)C1=O)N2c1ccc(S(N)(=O)=O)cc1
Q: Order the 4 compounds from highest to lowest pKi. Note for the reader: the ranking is given by listing the labels in the order requested.
A: 4, 1, 2, 3

[P] Cc1ccc(S(=O)(=O)Nc2c(C)cc(C)cc2C)cc1
[Q] COc1ccc(C(N)c2ccc(OC)c(OC)c2)cc1OC
Q: // compare measured pKi between P and Q ; output the lower one Your answer should be the label of the entry you select.
A: Q

###

For reference, the following Ki results for UniProt:P00915 were taken from various sources.
observable: Ki (µM)

[A] NS(=O)(=O)c1nnc(NC(=O)c2nn(-c3ccc(/N=N/c4ccc(O)cc4)cc3)c(-c3ccccc3)c2C(=O)c2ccccc2)s1
[B] COc1ccc(C2=CCCC2C(O)c2ccc(OC)c(OC)c2)cc1OC (stereo unspecified)
Q: // compare measured Ki between A and B ; output the lower one Your answer should be the label of the entry you select.
A: A

[P] Cc1cc(=O)oc2cc(O)cc(O)c12
[Q] O=C(c1ccc(O)c(O)c1)c1ccc(O)c(O)c1O
Q: // compare measured Ki between P and Q ; output the lower one Your answer should be the label of the entry you select.
A: P
(P: 8.4 µM, Q: 32.5 µM)
